Test system: gastric injuries induced by acidic alcohol
Assay: Assay of gastric injuries induced by acidic alcohol
Type: in vivo
Conditions: Rattus norvegicus, po, pretreatment 30 min, female rats, length of haemorrhagic lesions
Attribute: ED50
Note: a bare number is incomplete; add the unit.

### Prompt Please look up its ED50: CCOC(=O)C[C@@H](NC(=O)/C=C/[S+]([O-])c1ccccc1)C(=O)OCC (stereo partly drawn)
### Response 2.1 mg/kg

### Prompt Suppose we examine the compound `CCOC(=O)[C@H](C)NC(=O)/C=C/S(=O)(=O)c1ccccc1` ; what ED50 value has been reported?
### Response 2.2 mg/kg

### Prompt For the compound `CCOC(=O)CNC(=O)/C=C/S(=O)(=O)c1ccccc1` , what ED50 is on record?
### Response 1.6 mg/kg

### Prompt Look up ED50 for this compound: `CCOC(=O)C[C@@H](NC(=O)/C=C/S(=O)(=O)c1ccccc1)C(=O)OCC`
### Response 3.5 mg/kg

### Prompt Need ED50 of `NC(=O)[C@@H]1CCCN1C(=O)/C=C/S(=O)(=O)c1ccccc1` , thanks.
### Response 4.5 mg/kg

### Prompt Item under review: `COC(=O)[C@H](CCSC)NC(=O)/C=C/S(=O)(=O)c1ccccc1` . Reported ED50?
### Response 3.5 mg/kg
